Origin of values: PubChem BioAssay (NCATS)

Biological target: Mitogen-activated protein kinase 10 (Mus musculus) (UniProt Q61831)
Assay: JNK3 AlphaScreen Assay (AID 530);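 also: kinase came from lysate of stimulated human HepG2 cells; signal reports phosphorylation of biotinylated GST-cJun 1-79 at Ser73 with 10 µM ATP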
Settings: JNK3 lysate, c-Jun phosphorylation; series mostly up to 25.6 µM
Results filed as inconclusive are left out. Calls of active or inactive are those of the source. Calls follow the shape of the dose curve; as a rule, active = well fitted curve in either direction with a large enough effect (not every such curve was filed as active); inconclusive = small, poorly fitted or top-dose-only effect, or another doubt; inactive = flat fitted curve, though single readings scatter.
testReadout: outcome

Example cases with answers are listed next.
1. CC(C)(C)C(=O)OCOC(=O)[C@@H]1N2C(=O)[C@@H](NC(=O)[C@H](N)c3ccccc3)[C@H]2SC1(C)C = inactive
2. Cc1cccc(Nc2ccccc2C(=O)O)c1C = inactive
3. COc1ccc(O)cc1 = inactive
4. CC(=O)N[C@@H](CC(C)C)C(=O)O = inactive
5. C=CCNC(N)=S = inactive

Query FC(F)(F)C(Cl)Br (stereo not drawn) yields outcome of inactive

Query `CCOC(=O)[C@H](CCc1ccccc1)N[C@@H](C)C(=O)N1CCC[C@H]1C(=O)O` yields outcome of inactive

Query `CN/C(=C\[N+](=O)[O-])NCCSCc1csc(CN(C)C)n1` yields outcome of inactive

Query `O=C(Cn1ccnc1[N+](=O)[O-])NCCO` yields outcome of inactive

Query `Cc1cc(NC(=O)C2=C(O)c3ccccc3S(=O)(=O)N2C)no1` yields outcome of inactive

Query `Cn1c(=O)c2c(ncn2CCO)n(C)c1=O` yields outcome of inactive

Query `CCCCCCCC(=O)OCC(COC(=O)CCCCCCC)OC(=O)CCCCCCC` yields outcome of inactive

Query `CC(=O)Nc1ccc(C(=O)O)cc1` yields outcome of inactive
